Experiment: in vivo
Details: rat, plasma, iv, 3.5 mg/kg
Non-standard residues stand in square brackets, D forms with d. Residues, ends and D or L forms follow the SMILES beside them.
Property name: C0
Please state the value followed by its unit.

In: Would you mind telling me what C0 value was observed for CSCC[C@@H](NC(=O)[C@H](NC(=O)[C@@H](C)NC(=O)[C@@H](CO)NC(=O)CN)C(C)C)C(=O)N[C@H](Cc1ccccc1)C(=O)N[C@H](CO)C(=O)N[C@H](CO)C(=O)N[C@H](CCCCN)C(=O)N[C@H](CCC(=O)O)C(=O)N[C@H](CCCNC(=N)N)C(=O)NCC(=O)O [D-TTK001] (H-G[dS][dA][dV][dM][dF][dS][dS][dK][dE][dR]G-OH; N-terminus and C-terminus assumed) ?
Out: 36500 ng/mL

---

Assay: in vivo
Conditions: rat, plasma, iv, 3.5 mg/kg, AUC0-t, Mean, rats, intravenous injection 3.5 mg/kg, mean of 6
Non-standard residues stand in square brackets, D forms with d. Residues, ends and D or L forms follow the SMILES beside them.
Property name: AUC(0-t) (ng·h/mL)
Number in ng·h/mL, nothing else.

In: Would you mind telling me what AUC(0-t) value was observed for CSCC[C@@H](NC(=O)[C@H](NC(=O)[C@@H](C)NC(=O)[C@@H](CO)NC(=O)CN)C(C)C)C(=O)N[C@H](Cc1ccccc1)C(=O)N[C@H](CO)C(=O)N[C@H](CO)C(=O)N[C@H](CCCCN)C(=O)N[C@H](CCC(=O)O)C(=O)N[C@H](CCCNC(=N)N)C(=O)NCC(=O)O [D-TTK001] (H-G[dS][dA][dV][dM][dF][dS][dS][dK][dE][dR]G-OH; N-terminus and C-terminus assumed) ?
Out: 20800

---

Assay: in vivo
Conditions: rat, plasma, iv, 3.5 mg/kg, AUC0-∞, Mean, rats, intravenous injection 3.5 mg/kg, mean of 6
Non-standard residues stand in square brackets, D forms with d. Residues, ends and D or L forms follow the SMILES beside them.
Property name: AUC(0-inf) (ng·h/mL)
Number in ng·h/mL, nothing else.

In: Would you mind telling me what AUC(0-inf) value was observed for CSCC[C@@H](NC(=O)[C@H](NC(=O)[C@@H](C)NC(=O)[C@@H](CO)NC(=O)CN)C(C)C)C(=O)N[C@H](Cc1ccccc1)C(=O)N[C@H](CO)C(=O)N[C@H](CO)C(=O)N[C@H](CCCCN)C(=O)N[C@H](CCC(=O)O)C(=O)N[C@H](CCCNC(=N)N)C(=O)NCC(=O)O [D-TTK001] (H-G[dS][dA][dV][dM][dF][dS][dS][dK][dE][dR]G-OH; N-terminus and C-terminus assumed) ?
Out: 24100

---

Experiment: in vivo
Conditions: rat, plasma, iv, 3.5 mg/kg, Cmax, Mean, rats, intravenous injection 3.5 mg/kg, mean of 6
Non-standard residues stand in square brackets, D forms with d. Residues, ends and D or L forms follow the SMILES beside them.
Property name: Cmax (ng/mL)
Number in ng/mL, nothing else.

In: Would you mind telling me what Cmax value was observed for CSCC[C@@H](NC(=O)[C@H](NC(=O)[C@@H](C)NC(=O)[C@@H](CO)NC(=O)CN)C(C)C)C(=O)N[C@H](Cc1ccccc1)C(=O)N[C@H](CO)C(=O)N[C@H](CO)C(=O)N[C@H](CCCCN)C(=O)N[C@H](CCC(=O)O)C(=O)N[C@H](CCCNC(=N)N)C(=O)NCC(=O)O [D-TTK001] (H-G[dS][dA][dV][dM][dF][dS][dS][dK][dE][dR]G-OH; N-terminus and C-terminus assumed) ?
Out: 35800

---

Assay: in vivo
Details: rat, plasma, iv, 3.5 mg/kg
Non-standard residues stand in square brackets, D forms with d. Residues, ends and D or L forms follow the SMILES beside them.
Property name: Vd (L/kg)
Number in L/kg, nothing else.

In: Would you mind telling me what Vd value was observed for CSCC[C@@H](NC(=O)[C@H](NC(=O)[C@@H](C)NC(=O)[C@@H](CO)NC(=O)CN)C(C)C)C(=O)N[C@H](Cc1ccccc1)C(=O)N[C@H](CO)C(=O)N[C@H](CO)C(=O)N[C@H](CCCCN)C(=O)N[C@H](CCC(=O)O)C(=O)N[C@H](CCCNC(=N)N)C(=O)NCC(=O)O [D-TTK001] (H-G[dS][dA][dV][dM][dF][dS][dS][dK][dE][dR]G-OH; N-terminus and C-terminus assumed) ?
Out: 0.207
